// data source = paper PMC7660650

molecular target: Gal4-HNF4α (human HNF4α LBD) (Homo sapiens, UniProt P41235); construct: uniprot entry: P41235-1, residues 142-377; expressed in transfected cells; host or cells: HEK293T; experiment: Hybrid Gal4-HNF4α reporter gene assay in transiently transfected HEK293T cells; type: cell-based; conditions: 50 µM; mean of two biologically independent repeats; vs. 0.2% DMSO
Sequence (P41235 142-377): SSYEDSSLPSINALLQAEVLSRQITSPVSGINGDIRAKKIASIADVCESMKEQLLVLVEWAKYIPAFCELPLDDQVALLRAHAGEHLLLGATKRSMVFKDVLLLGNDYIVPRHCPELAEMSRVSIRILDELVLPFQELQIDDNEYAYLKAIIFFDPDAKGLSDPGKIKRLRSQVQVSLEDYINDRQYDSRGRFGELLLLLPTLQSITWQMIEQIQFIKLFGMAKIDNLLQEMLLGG
# label = condition met if Primary Screen (Fold Act., 50 µM) < 2 fold activation else condition not met

Some solved cases for reference:
compound | qualitative.label
Cc1cc(C(C)(C)CC(C)(C)C)ccc1O | condition not met
Nc1nc2cc(C(=O)c3ccccc3)ccc2[nH]1 | condition not met
COc1ccc2c(c1)OCC2=O | condition met
Cc1cc(=O)n(-c2ccc(C)c(C)c2)[nH]1 [compound 11, Cc1cc(=O)n([nH]1)-c1ccc(C)c(C)c1] | condition met
Nc1ncns1 | condition not met

Note: attention shifts to another entry.
IN: API: query returns whether the compound falls strictly under 2 fold activation in Primary Screen (Fold Act., 50 µM). Query: CC(C)CC(N)C1(c2ccc(Cl)cc2)CCC1 (stereo not drawn)
OUT: condition met
